Please go through the items and note down their TGI.
tested on: SK-MEL-5 melanoma; experiment: NCI tumour cell line growth inhibition, 48 h
Where a SMILES comes first, the peptide text is derived from it. The star is where a group is joined. Boc = CC(C)(C)OC(=O)*

Exam item: State TGI on SK-MEL-5 melanoma. Entry: Nc1c(C(=O)c2cccc(-c3cccnc3)c2)cnn1-c1ccc(F)cc1F
Marked response: 13.8 µM

Exam item: Fill: TGI (SK-MEL-5 melanoma) for this molecule Cc1n(Cc2ccccc2)nc2sc(N)n[n+]12
Marked response: > 100 µM

Exam item: # lookup: SK-MEL-5 melanoma TGI, key = C#CC1(O)CCCCCCCCC2(CCCCCCCC1)OCCO2
Marked response: 33.4 µM

Exam item: Find the measured TGI of CC1=C(C(=O)N(C)c2ccc(Cl)c(C(=O)OC(C)C)c2)SCCO1 with SK-MEL-5 melanoma as test system.
Marked response: > 100 µM

Exam item: State measured TGI of the molecule CN(C)C(=O)c1ccc([N+](=O)[O-])cc1 with SK-MEL-5 melanoma.
Marked response: > 100 µM

Exam item: Retrieve TGI on SK-MEL-5 melanoma; query COc1ccc(N(/C=C/C(=O)C(F)(F)F)CC(=O)c2ccc(F)cc2)cc1
Marked response: 32 µM

Exam item: Look up and report TGI, with SK-MEL-5 melanoma as system, for Cc1[nH]c2ccc(F)cc2c1-c1nc2c3cccnc3c3ncccc3c2[nH]1
Marked response: 0.516 µM

Exam item: State recorded TGI with SK-MEL-5 melanoma, entry CC(=O)Oc1ccc2c3c1O[C@H]1[C@H](O)CC[C@@]4(O)[C@@H](C2)N(C)CC[C@]314 , no comment.
Marked response: > 100 µM

Exam item: State, for SK-MEL-5 melanoma, measured TGI of the molecule listed here: O=C(O)c1nc(-c2ccc(Cl)c(Cl)c2)nc2ccc(Cl)cc12
Marked response: > 100 µM

Exam item: Retrieve TGI on SK-MEL-5 melanoma; query CCCCCCCCCCCCCCCCCCOCC(O)COP(=O)(O)OCC1OC(n2ccc(N)nc2=O)C(O)C1O (stereo unspecified)
Marked response: > 100 µM

Exam item: Please look at O=[N+]([O-])c1cc(Cl)cnc1Br and tell me its recorded TGI on SK-MEL-5 melanoma.
Marked response: 10.1 µM

Exam item: Identify measured TGI obtained with SK-MEL-5 melanoma for Cc1ccc(Nc2nc3c(=O)n(C)c(=O)n(C)c3nc2Nc2ccc(C)cc2)cc1 .
Marked response: 31 µM

Exam item: Give the observed TGI of Cc1ccc(-c2nc3nc(-c4ccccc4)nc(N4CCNCC4)c3o2)cc1 for SK-MEL-5 melanoma.
Marked response: 3.04 µM

Exam item: Report value only: TGI, SK-MEL-5 melanoma, COC(=O)C(CC1=C(O)Nc2ccccc2N1)/C(=N/NC(N)=O)C(=O)Nc1ccccc1C (stereo unspecified)
Marked response: > 100 µM

Exam item: For SK-MEL-5 melanoma, give the measured TGI of the entry CCOC(=O)c1c(NC(=S)Nc2ccccc2)sc2c1CCOC2
Marked response: > 100 µM

Exam item: // output TGI; input COC(=O)[C@H](Cc1ccc(O)cc1)NC(=O)[C@H](Cc1ccc(O)cc1)NC(=O)OC(C)(C)C (Boc-Tyr-Tyr-OMe) ; system SK-MEL-5 melanoma
Marked response: > 100 µM

Exam item: Under SK-MEL-5 melanoma: report TGI of O=C(NC(=Nc1ccccc1)SCCSC(=Nc1ccccc1)NC(=O)c1cccs1)c1cccs1 .
Marked response: 74 µM

Exam item: Enter recorded TGI with SK-MEL-5 melanoma for CN(C)Cc1cc(N=Nc2ccc(Cl)cc2)cc(CN(C)C)c1O here.
Marked response: 21.1 µM

Exam item: Look up and report TGI, with SK-MEL-5 melanoma as system, for COC1=C(C)C(=O)c2c(cc3c(c2O)C(C)(CCC=C(C)C)C(C)O3)C1=O (stereo unspecified)
Marked response: 27.4 µM

Exam item: Provide TGI, system SK-MEL-5 melanoma, entry COc1ccc(COC2CC(OC)OC(C)C2OC(=O)c2ccccc2)cc1 (stereo unspecified)
Marked response: 31.9 µM

Exam item: Look up SK-MEL-5 melanoma data: TGI of COC(=O)Nc1nc2ccc(Oc3cccc(NC(=O)Nc4cc(C(F)(F)F)ccc4F)c3)cc2[nH]1 , then report it.
Marked response: > 17.4 µM
